Assay: Cytotoxicity against HEK293T cells assessed as reduction in cell viability after 24 hrs by cell titer-glo luminescent cell viability assay
Assay type: cell-based, HEK-293T
Settings: human
Reported Property: CC50 at 24 h

Illustrative cases are given below, each with its answer.
>  <Molecule>
COc1ccc(Cn2c(C(=O)N3CCOCC3)cc3sccc32)cc1

>  <Reported>
> 100 µM

$$$$
>  <Molecule>
COc1ccc(Cn2c(C(=O)N3CCNCC3)cc3sccc32)cc1

>  <Reported>
> 100 µM

$$$$
>  <Molecule>
CCCNC(=O)C1CCN(C(=O)c2c(CNCc3ccccc3)c3sccc3n2Cc2ccc(OC)cc2)CC1

>  <Reported>
77.6 µM

$$$$
>  <Molecule>
COc1ccc(Cn2c(C(=O)N3CCCC3)cc3sccc32)cc1

>  <Reported>
> 100 µM

$$$$
>  <Molecule>
CCCNCc1cc2c(cc(C(=O)N3CCC(C(=O)NCCC)CC3)n2Cc2ccc(OC)cc2)s1

>  <Reported>
> 100 µM

$$$$
>  <Molecule>
COc1ccc(Cn2c(C(=O)N3CCN(Cc4ccccc4)CC3)cc3sc(C(=O)c4ccccc4)cc32)cc1

>  <Reported>
> 100 µM

$$$$

Find the recorded CC50 at 24 h belonging to CCCNC(=O)C1CCN(C(=O)c2c(CNC(C)c3ccccc3)c3sccc3n2Cc2ccc(OC)cc2)CC1 (stereo unspecified) and report it.
57.5 µM

Find the recorded CC50 at 24 h belonging to `CCCNCc1c(C(=O)N2CCC(C(=O)NCCC)CC2)n(Cc2ccc(OC)cc2)c2ccsc12` and report it.
> 100 µM

Find the recorded CC50 at 24 h belonging to `COc1ccc(Cn2c(C(=O)N3CCC(C(=O)NC4CC4)CC3)cc3sccc32)cc1` and report it.
21.4 µM

Find the recorded CC50 at 24 h belonging to `COc1ccc(Cn2c(C(=O)N3CCN(Cc4ccccc4)CC3)cc3sc(COCc4ccccc4)cc32)cc1` and report it.
> 100 µM

Find the recorded CC50 at 24 h belonging to `COc1ccc(Cn2c(C(=O)N3CCC(C(=O)NCCc4ccccc4)CC3)cc3sccc32)cc1` and report it.
> 100 µM

Find the recorded CC50 at 24 h belonging to `COc1ccc(Cn2c(C(N)=O)cc3sccc32)cc1` and report it.
> 100 µM

Find the recorded CC50 at 24 h belonging to `CCCNC(=O)C1CCN(C(=O)c2cc3sc(CO)cc3n2Cc2ccc(OC)cc2)CC1` and report it.
15.5 µM

Find the recorded CC50 at 24 h belonging to `COc1ccc(Cn2c(C(=O)N3CCC(C(=O)NCCC(C)C)CC3)cc3sccc32)cc1` and report it.
30.9 µM

Find the recorded CC50 at 24 h belonging to COc1ccc(Cn2c(C(=O)N3CCC(C(=O)NC(C)c4ccccc4)CC3)cc3sccc32)cc1 (stereo unspecified) and report it.
> 100 µM

Find the recorded CC50 at 24 h belonging to `CCCNC(=O)C1CCN(C(=O)c2cc3sc(CNCc4ccccc4)cc3n2Cc2ccc(OC)cc2)CC1` and report it.
46.8 µM

Find the recorded CC50 at 24 h belonging to `COc1ccc(Cn2c(C(=O)N3CCC(C(N)=O)CC3)cc3sccc32)cc1` and report it.
> 100 µM

---

Experiment: Cytotoxicity against HEK293T cells assessed as cell viability at antiviral EC50 after 24 hrs by cell titer-glo luminescent cell viability assay
Assay type: cell-based, HEK-293T
Conditions: human, read-out: Activity
Reported Property: viability at 24 h

Illustrative cases are given below, each with its answer.
>  <Compound>
COc1ccc(Cn2c(C(=O)N3CCN(Cc4ccccc4)CC3)cc3sc(CNC(C)c4ccccc4)cc32)cc1 (centres undefined)

>  <viability at 24 h>
> 80%

$$$$
>  <Compound>
CCCNCc1cc2c(cc(C(=O)N3CCC(C(=O)NCCC)CC3)n2Cc2ccc(OC)cc2)s1

>  <viability at 24 h>
> 80%

$$$$
>  <Compound>
CCCCC(=O)C1CCN(C(=O)c2cc3sccc3n2Cc2ccc(OC)cc2)CC1

>  <viability at 24 h>
> 80%

$$$$

Find the recorded viability at 24 h belonging to `COc1ccc(Cn2c(C(=O)N3CCN(Cc4ccccc4)CC3)cc3sc(COCc4ccccc4)cc32)cc1` and report it.
> 80%

Find the recorded viability at 24 h belonging to `CCCNCc1c(C(=O)N2CCC(C(=O)NCCC)CC2)n(Cc2ccc(OC)cc2)c2ccsc12` and report it.
> 80%

Find the recorded viability at 24 h belonging to `COc1ccc(Cn2c(C(=O)N3CCN(Cc4ccccc4)CC3)cc3sc(C(=O)c4ccccc4)cc32)cc1` and report it.
> 80%

Find the recorded viability at 24 h belonging to `CCCNC(=O)C1CCN(C(=O)c2cc3sc(-c4ccccc4)cc3n2Cc2ccc(OC)cc2)CC1` and report it.
> 80%

Find the recorded viability at 24 h belonging to `COc1ccc(Cn2c(C(=O)N3CCN(Cc4ccccc4)CC3)cc3sc(C(C)=O)cc32)cc1` and report it.
> 80%

Find the recorded viability at 24 h belonging to `CCCNC(=O)C1CCN(C(=O)c2cc3sc(CNCc4ccccc4)cc3n2Cc2ccc(OC)cc2)CC1` and report it.
> 80%

These entries and their values trace back to ChEMBL document CHEMBL3739406.
